- System: PA-1
- assay-notes: Primary qHTS to identify gynecologic anti-cancer compounds using libraries of approved drugs and bioactive compounds (AID 1345084); note: nearly all actives have a fitted effect of over 55% in size
- study-conditions: Gynecologic cancer cell panel viability, ATPlite luminescence, 48 h; series mostly up to 57.5 µM
Records with an inconclusive call do not appear. Activity calls are given as the source filed them. Calls come from the whole dose curve; as a rule, active = well fitted cell-killing curve with a large enough effect; inconclusive = small, poorly fitted or top-dose-only effect, or effect the other way; inactive = flat fitted curve, though single readings scatter.
Outcomes: active, inactive

INSERT INTO assay_data (compound, class_assignment) VALUES
  ('O=C(Nc1ccc([N+](=O)[O-])cc1Cl)c1cc(Cl)ccc1O', 'active'),
  ('CCOC(=O)C(C)(C)Oc1ccc(Cl)cc1', 'inactive'),
  ('COc1ccccc1OCCNCC(O)COc1cccc2[nH]c3ccccc3c12 (stereo unspecified)', 'inactive'),
  ('COc1ccc2[nH]cc(CCNC(C)=O)c2c1', 'inactive'),
  ('CC[N+](CC)(CC)CCOc1cccc(OCC[N+](CC)(CC)CC)c1OCC[N+](CC)(CC)CC', 'inactive'),
  ('CC(=O)OCC(CCn1cnc2cnc(N)nc21)COC(C)=O', 'inactive'),
  ('O=C(c1ccc(F)cc1)C1CCN(CCn2c(=O)[nH]c3ccccc3c2=O)CC1', 'inactive'),
  ('CC(COc1ccccc1)N(CCCl)Cc1ccccc1 (stereo unspecified)', 'inactive'),
  ('Cc1ccc(-c2cc(C(F)(F)F)nn2-c2ccc(S(N)(=O)=O)cc2)cc1', 'inactive'),
  ('Clc1ccc2c(c1)C(N1CCNCC1)=Nc1ccccc1O2', 'inactive'),
  ('CN1C(C(=O)Nc2ccccn2)=C(O)c2ccccc2S1(=O)=O', 'inactive');

====

- assay-notes: Quantitative High-Throughput drug screen in 47 multiple myeloma cell lines against the NCATS MIPE library collection: PCM6_Riken cell viability assay (AID 1919870); note: nearly all actives have a fitted effect of over 30% in size
- study-conditions: CellTiter-Glo ATP, 48 h; series mostly up to 45.8 µM
Results filed as inconclusive are left out. Active and inactive are the calls of the source. Calls follow the shape of the dose curve; as a rule, active = well fitted cell-killing curve with a large enough effect; inconclusive = small, poorly fitted or top-dose-only effect, or effect the other way; inactive = no such curve, though single readings can be large or run the other way.
Possible outcomes: active, inactive

INSERT INTO results (molecule, class_assignment) VALUES
  ('C[C@](N)(Cc1ccc(O)c(O)c1)C(=O)O', 'inactive'),
  ('Nc1nc2c(ncn2COC(CO)CO)c(=O)[nH]1', 'active'),
  ('CCc1cccc2c3c([nH]c12)C(CC)(CC(=O)O)OCC3 (configuration not stated)', 'inactive'),
  ('CS(=O)(=O)CCNCc1ccc(-c2ccc3ncnc(Nc4ccc(OCc5cccc(F)c5)c(Cl)c4)c3c2)o1', 'active'),
  ('Clc1ccc2nsnc2c1NC1=NCCN1', 'inactive'),
  ('O=c1c(O)c(-c2ccc(O)c(O)c2)oc2cc(O)cc(O)c12', 'active'),
  ('CNCCCC12CCC(c3ccccc31)c1ccccc12', 'active'),
  ('COc1cc2nc(N3CCN(C(=O)c4ccco4)CC3)nc(N)c2cc1OC', 'active'),
  ('Clc1ccc(C(c2ccccc2Cl)C(Cl)Cl)cc1 (configuration not stated)', 'active'),
  ('Cc1ccccc1N1C(=O)c2cc(S(N)(=O)=O)c(Cl)cc2NC1C (configuration not stated)', 'active'),
  ('NCCc1cnc[nH]1', 'inactive'),
  ('COc1cc2nc(N(C)CCCNC(=O)C3CCCO3)nc(N)c2cc1OC (configuration not stated)', 'inactive');

====

- assay-notes: Quantitative High-Throughput drug screen in 47 multiple myeloma cell lines against the NCATS MIPE library collection: AMO1_DSMZ cell viability assay (AID 1918927; note: nearly all actives have a fitted effect of over 30% in size)
- study-conditions: AMO1 myeloma cells viability, CellTiter-Glo ATP luminescence, 48 h; series mostly up to 45.8 µM
- Description: PI: Beverly A. Mock Ph.D. Laboratory of Cancer Biology and Genetics, Center for Cancer Research, National Cancer Institute, National Institute of Health, Bethesda, Maryland […] 5; Detector; 425V; Luminescence; Viewlux PerkinElmer. […] 1. […] Briefly, the corresponding myeloma cell lines were screened in 1,536-well plates with 500 cells, 5-uL per well for inhibition of cell viability (assessed by measuring ATP levels with CellTiterGlo). […]
Inconclusive results are not listed. Active and inactive are the calls of the source. Calls follow the shape of the dose curve; as a rule, active = well fitted cell-killing curve with a large enough effect; inconclusive = small, poorly fitted or top-dose-only effect, or effect the other way; inactive = no such curve, though single readings can be large or run the other way.
Possible outcomes: active, inactive

INSERT INTO results (compound, class_assignment) VALUES
  ('Cc1cc(C(C)(C)C)cc(C)c1CC1=NCCN1', 'inactive'),
  ('CN(C)C(=N)N=C(N)N', 'inactive'),
  ('CN1CCN(CCCN2c3ccccc3Sc3ccc(Cl)cc32)CC1', 'active'),
  ('CC(C)(Oc1ccc(C2CC2(Cl)Cl)cc1)C(=O)O (configuration not stated)', 'inactive'),
  ('CN(Cc1cnc2nc(N)nc(N)c2n1)c1ccc(C(=O)N[C@@H](CCC(=O)O)C(=O)O)cc1', 'active'),
  ('OCCN(CCO)c1nc(N2CCCCC2)c2nc(N(CCO)CCO)nc(N3CCCCC3)c2n1', 'active'),
  ('COC(=O)Nc1nc2ccc(C(=O)c3cccs3)cc2[nH]1', 'active'),
  ('O=C1N(c2ccccc2)c2ccccc2C1(Cc1ccncc1)Cc1ccncc1', 'inactive'),
  ('CS(=O)(=O)Nc1ccc([N+](=O)[O-])cc1Oc1ccccc1', 'inactive'),
  ('NC(=O)NO', 'active'),
  ('Cc1ccc(-c2cc(C(F)(F)F)nn2-c2ccc(S(N)(=O)=O)cc2)cc1', 'inactive'),
  ('CN1C2CCC1CC(OC(=O)C(CO)c1ccccc1)C2 (configuration not stated)', 'inactive');

Where do the numbers come from? From PubChem BioAssay (NCATS).
